In this section, each of the molecules is paired with its reported T1/2.
experiment: Half life of the compound in pH 7.5 tris HCl buffer/acetonitrile at 2 mg/ml measured at room temperature under 365 nm light irradiation using trans-isomer form of compound by 1H-19F NMR spectroscopic analysis

Recorded T1/2 (molecule "COc1ccc(/N=N\c2ccc(F)c(C(=O)Nc3cnc4[nH]nc(OC)c4c3)c2F)cc1" ): > 24 h

Recorded T1/2 (molecule "COc1n[nH]c2ncc(NC(=O)c3c(F)ccc(/N=N\c4ccc(F)cc4)c3F)cc12" ): > 24 h

Recorded T1/2 (molecule "COc1n[nH]c2ncc(NC(=O)c3c(F)ccc(/N=N\c4ccccc4F)c3F)cc12" ): 5 h

Recorded T1/2 (molecule "COc1n[nH]c2ncc(NC(=O)c3c(F)ccc(/N=N\c4ccccc4C)c3F)cc12" ): > 24 h

Recorded T1/2 (molecule "COc1n[nH]c2ncc(NC(=O)c3c(F)ccc(/N=N\c4ccc(C)cc4)c3F)cc12" ): > 24 h

Recorded T1/2 (molecule "COc1ccccc1/N=N\c1ccc(F)c(C(=O)Nc2cnc3[nH]nc(OC)c3c2)c1F" ): > 24 h

This collection of values is drawn from ChEMBL document CHEMBL4364290.
